Measured on: serotonin transporter (5HTT) (Rattus norvegicus)
Assay method text: Serotonin transporter binding ([^3 H]citalopram), NOVASCREEN
Cond: read-out: 5HTT (% I@10 μM)
Assay readout: inhibition at 10 µM

INSERT INTO measurements (molecule, assay_readout, endpoint_result) VALUES
  ('CN1[C@@H]2CC[C@H]1C[C@@H](OC(c1ccc(Br)cc1)c1ccc(Br)cc1)C2', 'inhibition at 10 µM', '41%'),
  ('CN1[C@@H]2CC[C@H]1C[C@@H](OC(c1ccc(F)cc1)c1ccc(F)cc1)C2', 'inhibition at 10 µM', '62%'),
  ('CN1[C@@H]2CC[C@H]1C[C@@H](OC(c1ccccc1)c1ccc(C(C)(C)C)cc1)C2 (stereo partly drawn)', 'inhibition at 10 µM', '24.7%'),
  ('CCc1ccc(C(O[C@H]2C[C@H]3CC[C@@H](C2)N3C)c2ccccc2)cc1 (stereo partly drawn)', 'inhibition at 10 µM', '42.7%'),
  ('CN1[C@@H]2CC[C@H]1C[C@@H](OC(c1ccccc1)c1ccc(C(F)(F)F)cc1)C2 (stereo partly drawn)', 'inhibition at 10 µM', '49.1%'),
  ('CN1[C@@H]2CC[C@H]1C[C@@H](OC(c1ccccc1)c1ccc(C#N)cc1)C2 (stereo partly drawn)', 'inhibition at 10 µM', '40%'),
  ('CN1[C@@H]2CC[C@H]1C[C@@H](OC(c1ccccc1)c1ccc(Cl)cc1)C2 (stereo partly drawn)', 'inhibition at 10 µM', '34%'),
  ('CN1[C@@H]2CC[C@H]1C[C@@H](OC(c1ccc(F)cc1)c1ccc(Cl)c(Cl)c1)C2 (stereo partly drawn)', 'inhibition at 10 µM', '80.3%'),
  ('CN1[C@@H]2CC[C@H]1C[C@@H](OC(c1ccccc1)c1ccc(Br)cc1)C2 (stereo partly drawn)', 'inhibition at 10 µM', '39%'),
  ('CN1[C@@H]2CC[C@H]1C[C@H](OC(c1ccccc1)c1ccc(Cl)cc1)C2 (stereo partly drawn)', 'inhibition at 10 µM', '37.2%'),
  ('COc1ccc(C(O[C@H]2C[C@H]3CC[C@@H](C2)N3C)c2ccccc2)cc1 (stereo partly drawn)', 'inhibition at 10 µM', '30.5%'),
  ('Cc1ccc(C(O[C@H]2C[C@H]3CC[C@@H](C2)N3C)c2ccc(C)cc2)cc1', 'inhibition at 10 µM', '35.5%'),
  ('CN1[C@@H]2CC[C@H]1C[C@@H](OC(c1ccccc1)c1ccc(O)cc1)C2 (stereo partly drawn) [Compound 7r, 3α-4''-Hydroxy-(diphenylmethoxy)tropane]', 'inhibition at 10 µM', '23.3%'),
  ('CN1[C@@H]2CC[C@H]1C[C@@H](OC(c1ccccc1)c1ccc(F)cc1)C2 (stereo partly drawn)', 'inhibition at 10 µM', '35.2%'),
  ('COc1ccc(C(O[C@H]2C[C@H]3CC[C@@H](C2)N3C)c2ccc(OC)cc2)cc1', 'inhibition at 10 µM', '31%');

###

Measured on: norepinephrine transporter (NET) (Rattus norvegicus, UniProt Q63380)
Sequence (Q63380 1-617): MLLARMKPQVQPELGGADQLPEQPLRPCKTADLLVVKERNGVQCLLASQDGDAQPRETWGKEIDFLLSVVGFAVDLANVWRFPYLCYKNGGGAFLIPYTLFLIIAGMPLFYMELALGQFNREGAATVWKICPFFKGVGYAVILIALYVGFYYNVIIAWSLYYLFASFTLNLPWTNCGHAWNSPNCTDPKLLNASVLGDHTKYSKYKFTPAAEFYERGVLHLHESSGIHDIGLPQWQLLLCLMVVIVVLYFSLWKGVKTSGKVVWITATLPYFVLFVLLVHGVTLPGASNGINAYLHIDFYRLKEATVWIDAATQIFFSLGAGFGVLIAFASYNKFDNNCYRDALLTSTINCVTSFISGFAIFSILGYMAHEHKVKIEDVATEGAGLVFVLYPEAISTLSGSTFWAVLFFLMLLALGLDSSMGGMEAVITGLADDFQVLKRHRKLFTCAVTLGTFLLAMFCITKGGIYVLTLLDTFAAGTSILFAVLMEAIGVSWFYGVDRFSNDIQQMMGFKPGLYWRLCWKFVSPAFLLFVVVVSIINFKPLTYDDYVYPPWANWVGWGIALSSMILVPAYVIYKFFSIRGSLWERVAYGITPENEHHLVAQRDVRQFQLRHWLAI
Assay method text: biochemical
Format: binding
Cond: read-out: NET, Ki; Table IV
pKi: −log10 of the molar value.
Assay readout: pKi

INSERT INTO results (structure, measured_on, assay_readout, endpoint_result) VALUES
  ('CN1[C@@H]2CC[C@H]1C[C@@H](OC(c1ccc(F)cc1)c1ccc(F)cc1)C2', 'norepinephrine transporter (NET) (Rattus norvegicus, UniProt Q63380)', 'pKi', '< 5.07');

###

Measured on: muscarinic m2 receptors (Rattus norvegicus)
Sequence (P10980 whole entry): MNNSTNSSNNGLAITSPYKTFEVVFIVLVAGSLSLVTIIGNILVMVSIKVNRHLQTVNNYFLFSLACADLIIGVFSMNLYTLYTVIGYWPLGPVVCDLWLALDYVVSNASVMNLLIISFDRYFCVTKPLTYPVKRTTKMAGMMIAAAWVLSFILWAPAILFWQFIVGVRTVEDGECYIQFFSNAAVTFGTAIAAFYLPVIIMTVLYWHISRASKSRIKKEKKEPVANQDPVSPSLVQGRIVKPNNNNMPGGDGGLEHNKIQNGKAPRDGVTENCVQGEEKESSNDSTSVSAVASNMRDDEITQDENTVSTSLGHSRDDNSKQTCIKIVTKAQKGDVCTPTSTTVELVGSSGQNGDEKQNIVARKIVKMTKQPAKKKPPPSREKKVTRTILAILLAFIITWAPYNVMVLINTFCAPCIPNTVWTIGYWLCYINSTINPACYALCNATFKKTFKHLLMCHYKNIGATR
Assay method text: Muscarinic m2 receptor binding ([^3 H]AFDX 384), NOVASCREEN
Cond: Table IV
Excerpt: Serotonin (5-HTT), norepinephrine transporter (NET) and muscarinic m1 and m2 receptor binding data were provided by NOVASCREEN.
Property: Ki; scope: individual compounds
Assay readout: Ki

INSERT INTO measurements (structure, measured_on, assay_readout, endpoint_result) VALUES
  ('Fc1ccc(C(O[C@H]2C[C@H]3CC[C@@H](C2)N3)c2ccc(F)cc2)cc1', 'muscarinic m2 receptors (Rattus norvegicus)', 'Ki', '620 nM'),
  ('C=CCN1[C@@H]2CC[C@H]1C[C@@H](OC(c1ccc(F)cc1)c1ccc(F)cc1)C2', 'muscarinic m2 receptors (Rattus norvegicus)', 'Ki', '254 nM'),
  ('CCCCN1[C@@H]2CC[C@H]1C[C@@H](OC(c1ccc(F)cc1)c1ccc(F)cc1)C2', 'muscarinic m2 receptors (Rattus norvegicus)', 'Ki', '308 nM'),
  ('Fc1ccc(C(O[C@H]2C[C@H]3CC[C@@H](C2)N3Cc2ccccc2)c2ccc(F)cc2)cc1', 'muscarinic m2 receptors (Rattus norvegicus)', 'Ki', '276 nM'),
  ('Fc1ccc(C(O[C@H]2C[C@H]3CC[C@@H](C2)N3CC=Cc2ccccc2)c2ccc(F)cc2)cc1', 'muscarinic m2 receptors (Rattus norvegicus)', 'Ki', '1590 nM'),
  ('Fc1ccc(C(O[C@H]2C[C@H]3CC[C@@H](C2)N3CCCc2ccccc2)c2ccc(F)cc2)cc1', 'muscarinic m2 receptors (Rattus norvegicus)', 'Ki', '499 nM');

###

Measured on: serotonin transporter (5HTT) (Rattus norvegicus, UniProt P31652)
Sequence (P31652 whole entry): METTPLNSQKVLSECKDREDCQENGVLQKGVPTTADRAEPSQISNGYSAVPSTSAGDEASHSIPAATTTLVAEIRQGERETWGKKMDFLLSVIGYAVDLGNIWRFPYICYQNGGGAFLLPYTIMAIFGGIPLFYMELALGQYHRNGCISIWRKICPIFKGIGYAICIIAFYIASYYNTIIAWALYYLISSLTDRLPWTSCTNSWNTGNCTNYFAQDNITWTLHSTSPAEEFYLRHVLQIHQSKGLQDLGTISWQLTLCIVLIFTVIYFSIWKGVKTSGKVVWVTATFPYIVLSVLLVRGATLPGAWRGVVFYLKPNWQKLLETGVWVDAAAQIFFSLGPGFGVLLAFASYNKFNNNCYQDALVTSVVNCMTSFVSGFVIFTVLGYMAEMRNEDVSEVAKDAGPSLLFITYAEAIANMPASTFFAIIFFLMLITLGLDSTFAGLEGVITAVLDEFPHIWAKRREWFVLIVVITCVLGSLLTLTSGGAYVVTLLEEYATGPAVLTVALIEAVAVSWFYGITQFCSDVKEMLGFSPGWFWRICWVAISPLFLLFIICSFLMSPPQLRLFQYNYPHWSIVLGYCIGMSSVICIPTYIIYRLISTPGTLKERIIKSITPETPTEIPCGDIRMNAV
Assay method text: Serotonin transporter binding ([^3 H]citalopram), NOVASCREEN
Cond: read-out: 5HTT (% I@10 μM)
// reported inhibition at 10 µM per item
Assay readout: inhibition at 10 µM (%)

INSERT INTO measurements (molecule, measured_on, assay_readout, unit, endpoint_result) VALUES
  ('CN1[C@@H]2CC[C@H]1C[C@@H](OC(c1ccccc1)c1ccc([N+](=O)[O-])cc1)C2 (stereo partly drawn)', 'serotonin transporter (5HTT) (Rattus norvegicus, UniProt P31652)', 'inhibition at 10 µM', '%', 54),
  ('Cc1ccc(C(O[C@H]2C[C@H]3CC[C@@H](C2)N3C)c2ccccc2)cc1 (stereo partly drawn)', 'serotonin transporter (5HTT) (Rattus norvegicus, UniProt P31652)', 'inhibition at 10 µM', '%', 35.4),
  ('CN1[C@@H]2CC[C@H]1C[C@@H](OC(c1ccccc1)c1ccc(Cl)c(Cl)c1)C2 (stereo partly drawn)', 'serotonin transporter (5HTT) (Rattus norvegicus, UniProt P31652)', 'inhibition at 10 µM', '%', 66.2);

###

Measured on: UniProt Q63380
Assay method text: biochemical
Format: binding
pKi: −log10 of the molar value.
Recorded pKi for the following molecules
Assay readout: pKi

INSERT INTO measurements (molecule, assay_readout, endpoint_result) VALUES
  ('CN1[C@@H]2CC[C@H]1C[C@@H](OC(c1ccc(F)cc1)c1ccc(Cl)c(Cl)c1)C2 (stereo partly drawn) [Compound 7l]', 'pKi', '< 5.05'),
  ('Fc1ccc(C(O[C@H]2C[C@H]3CC[C@@H](C2)N3CC2CC2)c2ccc(F)cc2)cc1 [JHW 013]', 'pKi', 6.93),
  ('CN1[C@@H]2CC[C@H]1C[C@@H](OC(c1ccc(F)cc1)c1ccc(F)cc1)C2 [Compound 7c]', 'pKi', '< 5.07'),
  ('Fc1ccc(C(O[C@H]2C[C@H]3CC[C@@H](C2)N3)c2ccc(F)cc2)cc1 [AHN 2-003, N-nor-4'',4"-difluorobenztropine]', 'pKi', '< 5.10'),
  ('Fc1ccc(C(O[C@H]2C[C@H]3CC[C@@H](C2)N3CC=Cc2ccccc2)c2ccc(F)cc2)cc1 [AHN 2-006]', 'pKi', 6.24),
  ('CN1[C@@H]2CC[C@H]1C[C@@H](OC(c1ccc(Cl)cc1)c1ccc(Cl)cc1)C2 [Compound 7b]', 'pKi', '< 5.22');

###

Measured on: norepinephrine transporter (NET) (Rattus norvegicus, UniProt Q63380)
Assay method text: biochemical
Format: binding
Cond: read-out: NET (% I@10 μM)
Reported inhibition at 10 µM values for the following compounds.
Assay readout: inhibition at 10 µM (%)

INSERT INTO assay_data (compound, endpoint_result) VALUES
  ('CN1[C@@H]2CC[C@H]1C[C@@H](OC(c1ccccc1)c1ccc(C(C)(C)C)cc1)C2 (some centres unmarked)', 37.6),
  ('CN1[C@@H]2CC[C@H]1C[C@@H](OC(c1ccccc1)c1ccc(O)cc1)C2 (stereo partly drawn) [Compound 7r, 3α-4''-Hydroxy-(diphenylmethoxy)tropane]', 27.3),
  ('CN1[C@@H]2CC[C@H]1C[C@@H](OC(c1ccc(F)cc1)c1ccc(F)cc1)C2', 30),
  ('CN1[C@@H]2CC[C@H]1C[C@@H](OC(c1ccc(Cl)cc1)c1ccc(Cl)cc1)C2', 43),
  ('CN1[C@@H]2CC[C@H]1C[C@@H](OC(c1ccccc1)c1ccc([N+](=O)[O-])cc1)C2 (some centres unmarked)', 29),
  ('CN1[C@@H]2CC[C@H]1C[C@@H](OC(c1ccccc1)c1ccc(Cl)cc1)C2 (some centres unmarked)', 32),
  ('CN1[C@@H]2CC[C@H]1C[C@@H](OC(c1ccccc1)c1ccc(Br)cc1)C2 (some centres unmarked)', 37),
  ('CN1[C@@H]2CC[C@H]1C[C@@H](OC(c1ccccc1)c1ccc(F)cc1)C2 (some centres unmarked)', 37.9),
  ('COc1ccc(C(O[C@H]2C[C@H]3CC[C@@H](C2)N3C)c2ccccc2)cc1 (some centres unmarked)', 30.9),
  ('Cc1ccc(C(O[C@H]2C[C@H]3CC[C@@H](C2)N3C)c2ccccc2)cc1 (some centres unmarked)', 31.8),
  ('CN1[C@@H]2CC[C@H]1C[C@H](OC(c1ccccc1)c1ccc(Cl)cc1)C2 (some centres unmarked)', 27.9);

Provenance of the data: patent US5792775A
